- SYSTEM UNDER TEST: SARS-CoV-2 NSP3 macrodomain (Mac1), P43 crystal form (Severe acute respiratory syndrome coronavirus 2, UniProt P0DTD1)
- Type: binding
- EXPERIMENTAL CONTEXT: crystal soak 10 mM; DMSO background map
OUTCOME MEASURE: PanDDA run, DMSO background map: 1-BDC
// response body must contain only the number

Input `O=C(O)C(F)(F)F.OCC1(Nc2ncnc3[nH]ccc23)CCC1` . Output PanDDA run, DMSO background map: 1-BDC: 0.18

Input CCC(Nc1ncnc2[nH]ccc12)C(C)O (centres unmarked) . Output PanDDA run, DMSO background map: 1-BDC: 0.14

Input OCC(Cc1ccc(I)cc1)Nc1ncnc2[nH]ccc12 (centres unmarked) . Output PanDDA run, DMSO background map: 1-BDC: 0.2

Input OCC(Nc1ncnc2[nH]ccc12)C1CCC1 (centres unmarked) . Output PanDDA run, DMSO background map: 1-BDC: 0.13

Input `CO[C@@H]1C[C@H](CO)N(c2ncnc3[nH]ccc23)C1` . Output PanDDA run, DMSO background map: 1-BDC: 0.26

Input C#CCC(CO)Nc1ncnc2[nH]ccc12 (centres unmarked) . Output PanDDA run, DMSO background map: 1-BDC: 0.18

Input CC(c1ccccc1)C(CO)Nc1ncnc2[nH]ccc12 (centres unmarked) . Output PanDDA run, DMSO background map: 1-BDC: 0.14

Input `O=C(O)C(F)(F)F.OCC12CC(CN1c1ncnc3[nH]ccc13)C2` . Output PanDDA run, DMSO background map: 1-BDC: 0.22

Input CC1CCN(c2ncnc3[nH]ccc23)C1CO (centres unmarked) . Output PanDDA run, DMSO background map: 1-BDC: 0.21

Input OCC(CC1CCCC1)Nc1ncnc2[nH]ccc12 (centres unmarked) . Output PanDDA run, DMSO background map: 1-BDC: 0.18

Input OCC(CC1CCOC1)Nc1ncnc2[nH]ccc12 (centres unmarked) . Output PanDDA run, DMSO background map: 1-BDC: 0.17
